These entries and their values trace back to patent US20230381157A1.

System: HEK293T
Experiment: Specificity: mammalian cell cytotoxicity / inhibition of bacteria growth (CC50/IC50)
Conditions: IC50 vs A. baumannii HUMC1; RPMI alone
# binarize Specificity HEK293T (CC50/IC50): threshold 5 inclusive, high side true, low side false

These solved cases illustrate the format of a correct answer.
1. CO[C@H]1/C=C/O[C@@]2(C)Oc3c(C)c(O)c4c(O)c(c(/C=N/N=C/N5CCCCC5)c(O)c4c3C2=O)NC(=O)/C(C)=C\C=C\[C@H](C)[C@H](O)[C@@H](C)[C@@H](O)[C@@H](C)[C@H](OC(C)=O)[C@@H]1C [FCE-22250] : false
2. CO[C@H]1/C=C/O[C@@]2(C)Oc3c(C)c(O)c4c(O)c(cc(O)c4c3C2=O)NC(=O)/C(C)=C\C=C\[C@H](C)[C@H](O)[C@@H](C)[C@@H](O)[C@@H](C)[C@H](OC(C)=O)[C@@H]1C [rifamycin] : false

Attention now turns to another entry.
Q) Decide: Specificity HEK293T (CC50/IC50) of CO[C@H]1/C=C/O[C@@]2(C)Oc3c(C)c(O)c4c(c3C2=O)C2=NC3(CCN(CC(C)C)CC3)NC2=C(NC(=O)/C(C)=C\C=C\[C@H](C)[C@H](O)[C@@H](C)[C@@H](O)[C@@H](C)[C@H](OC(C)=O)[C@@H]1C)C4=O [rifabutin] >= 5?
A) true
